Recorded values, source patent US8796245B2.

# System: S. aureus SA161 (tet resistant: tet(M) ribosomal protection)
# test.method.notes: Minimum inhibitory concentration assay, SA161
# Format: cell-based
# run.conditions: Staphylococcus aureus, read-out: MICs SA161
assay.endpoint: MIC (µg/mL)
Enter your answer as a number in µg/mL; do not include the unit.

Consider the reported MIC for these compounds:
{"compound": "CN(C)[C@@H]1C(O)=C(C(N)=O)C(=O)[C@@]2(O)C(O)=C3C(=O)c4c(O)c(NC(=O)CNCC(C)(C)C)cc(F)c4C[C@H]3C[C@@H]12", "quantity.unit": "µg/mL", "MIC": 0.5}
{"compound": "CN(C)[C@H]1CCN(CC(=O)Nc2cc(F)c3c(c2O)C(=O)C2=C(O)[C@]4(O)C(=O)C(C(N)=O)=C(O)[C@@H](N(C)C)[C@@H]4C[C@@H]2C3)C1", "quantity.unit": "µg/mL", "MIC": 16}
{"compound": "CN(C)[C@@H]1C(O)=C(C(N)=O)C(=O)[C@@]2(O)C(O)=C3C(=O)c4c(O)c(NC(=O)CN5CCCCC5)cc(F)c4C[C@H]3C[C@@H]12", "quantity.unit": "µg/mL", "MIC": 1}
{"compound": "CN(C)[C@@H]1C(O)=C(C(N)=O)C(=O)[C@@]2(O)C(O)=C3C(=O)c4c(O)c(NC(=O)CN5CC6CCCC6C5)cc(F)c4C[C@H]3C[C@@H]12 (stereo partly drawn)", "quantity.unit": "µg/mL", "MIC": 1}

IN: Name the reported MIC value associated with the compound CCCCNCC(=O)Nc1cc(F)c2c(c1O)C(=O)C1=C(O)[C@]3(O)C(=O)C(C(N)=O)=C(O)[C@@H](N(C)C)[C@@H]3C[C@@H]1C2
OUT: 0.0625

IN: Name the reported MIC value associated with the compound COCCNCC(=O)Nc1cc(F)c2c(c1O)C(=O)C1=C(O)[C@]3(O)C(=O)C(C(N)=O)=C(O)[C@@H](N(C)C)[C@@H]3C[C@@H]1C2
OUT: 0.5

IN: Name the reported MIC value associated with the compound CN(C)[C@@H]1C(O)=C(C(N)=O)C(=O)[C@@]2(O)C(O)=C3C(=O)c4c(O)c(NC(=O)CNC(C)(C)C)cc(F)c4C[C@H]3C[C@@H]12
OUT: 0.25

IN: Name the reported MIC value associated with the compound CN(CC(=O)Nc1cc(F)c2c(c1O)C(=O)C1=C(O)[C@]3(O)C(=O)C(C(N)=O)=C(O)[C@@H](N(C)C)[C@@H]3C[C@@H]1C2)C1CCCC1
OUT: 2

----------
# test.method.notes: Protein binding in human plasma (RED devices)
# Format: in vitro ADME
# run.conditions: % Protein binding in human plasma with compound at 10 uM
assay.endpoint: Prot Bind % (%)
Enter your answer as a number in %; do not include the unit.

{"compound": "CN(C)[C@@H]1C(O)=C(C(N)=O)C(=O)[C@@]2(O)C(O)=C3C(=O)c4c(O)c(NC(=O)CNCC5CC5)cc(F)c4C[C@H]3C[C@@H]12 [drawing 218]", "Prot Bind % (%)": 87.9}

IN: Name the reported Prot Bind % value associated with the compound CN(C)c1cc(NC(=O)CNC(C)(C)C)c(O)c2c1C[C@H]1C[C@H]3[C@H](N(C)C)C(O)=C(C(N)=O)C(=O)[C@@]3(O)C(O)=C1C2=O
OUT: 69.1

IN: Name the reported Prot Bind % value associated with the compound CN(C)CC(=O)Nc1cc(F)c2c(c1O)C(=O)C1=C(O)[C@]3(O)C(=O)C(C(N)=O)=C(O)[C@@H](N(C)C)[C@@H]3C[C@@H]1C2 [drawing 220]
OUT: 93.6

IN: Name the reported Prot Bind % value associated with the compound CC(C)NCC(=O)Nc1cc(F)c2c(c1O)C(=O)C1=C(O)[C@]3(O)C(=O)C(C(N)=O)=C(O)[C@@H](N(C)C)[C@@H]3C[C@@H]1C2 [drawing 219]
OUT: 96.9

IN: Name the reported Prot Bind % value associated with the compound CN(C)[C@@H]1C(O)=C(C(N)=O)C(=O)[C@@]2(O)C(O)=C3C(=O)c4c(O)c(NC(=O)CN5CCC5)cc(F)c4C[C@H]3C[C@@H]12 [drawing 216]
OUT: 87.1

IN: Name the reported Prot Bind % value associated with the compound CC(C)CNCC(=O)Nc1cc(F)c2c(c1O)C(=O)C1=C(O)[C@]3(O)C(=O)C(C(N)=O)=C(O)[C@@H](N(C)C)[C@@H]3C[C@@H]1C2 [drawing 215]
OUT: 95.6

IN: Name the reported Prot Bind % value associated with the compound CN(C)[C@@H]1C(O)=C(C(N)=O)C(=O)[C@@]2(O)C(O)=C3C(=O)c4c(O)c(NC(=O)CNC(C)(C)C)cc(F)c4C[C@H]3C[C@@H]12 [drawing 214]
OUT: 90

IN: Name the reported Prot Bind % value associated with the compound CN(C)[C@@H]1C(O)=C(C(N)=O)C(=O)[C@@]2(O)C(O)=C3C(=O)c4c(O)c(NC(=O)CN5CCCC5)cc(F)c4C[C@H]3C[C@@H]12 [drawing 217]
OUT: 79.4
